- System: PPARg:RXRa (NR concentration 180 nM, RXRa partner concentration 90 nM)
- Assay Remarks: PBM binding z-score (relative to random genomic background probes); higher = stronger binding; sequences stand for … in GC…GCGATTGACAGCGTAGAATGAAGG
Each entry gets Not met if its PBM binding z-score stays under 2, and Met if its PBM binding z-score is 2 or above.

Illustrative cases are given below, each with its answer.
Macromolecule Sequence: CTTTGTAGGTTAAGGGGGTCATTCAGTTTGAAAG
Discrete Label: Met
--
Macromolecule Sequence: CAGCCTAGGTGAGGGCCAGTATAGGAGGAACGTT
Discrete Label: Not met
--
Macromolecule Sequence: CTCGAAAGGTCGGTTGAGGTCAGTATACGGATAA
Discrete Label: Not met

--- query ---
Q: Is it the case that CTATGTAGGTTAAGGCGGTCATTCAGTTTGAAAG has PBM binding z-score reaching or exceeding 2?
Ans: Met

---

- Test system: RARb homodimer (NR concentration 270 nM)
- Assay Remarks: PBM binding z-score (relative to random genomic background probes); higher = stronger binding; sequences stand for … in GC…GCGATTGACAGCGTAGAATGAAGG
Overview of recorded PBM binding z-score for various sequences
Keep it simple and answer with nothing but the number.

A selection of reference data follows.
Macromolecule Sequence: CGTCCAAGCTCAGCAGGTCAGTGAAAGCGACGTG
PBM binding z-score: 1.73
//
Macromolecule Sequence: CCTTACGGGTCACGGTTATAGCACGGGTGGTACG
PBM binding z-score: 3.58

Q: // query PBM binding z-score value for entry ATATGTAGGTTAGGGTCAATCAGAAAGTAGGGAA
Ans: 3.59

Q: Do the same for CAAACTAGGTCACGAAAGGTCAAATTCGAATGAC please
Ans: 5.85

Q: How about this sequence: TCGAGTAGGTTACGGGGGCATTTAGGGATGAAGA
Ans: 2.32

Q: Another sequence: CGTCAAAGTTCAACTAATGTAACGTAAAGCACGC
Ans: 3.96

Q: How about this sequence: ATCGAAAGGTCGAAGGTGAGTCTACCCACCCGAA
Ans: 2.48

---

// reported PBM binding z-score for each item listed
- System: VDR:RXRa (NR concentration 270 nM, RXRa partner concentration 90 nM)
- Assay Remarks: PBM binding z-score (relative to random genomic background probes); higher = stronger binding; sequences stand for … in GC…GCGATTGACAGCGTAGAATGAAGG

Example cases with answers are listed next.
Macromolecule Sequence: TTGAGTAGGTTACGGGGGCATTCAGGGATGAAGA
Reported Property: PBM binding z-score
Recorded Value: 4.34
--
Macromolecule Sequence: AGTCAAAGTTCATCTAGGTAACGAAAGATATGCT
Reported Property: PBM binding z-score
Recorded Value: 4.81
--
Macromolecule Sequence: ATATGTACGTTAGGGTCATTCAGAAAGTAGGGAA
Reported Property: PBM binding z-score
Recorded Value: 4.24
--
Macromolecule Sequence: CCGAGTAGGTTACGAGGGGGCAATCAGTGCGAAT
Reported Property: PBM binding z-score
Recorded Value: 4.72
--
Macromolecule Sequence: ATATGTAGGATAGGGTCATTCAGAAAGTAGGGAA
Reported Property: PBM binding z-score
Recorded Value: 3.79

Q: Look at this sequence and give its reported PBM binding z-score. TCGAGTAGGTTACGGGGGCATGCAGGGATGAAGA
Ans: 3.43

Q: Now the same for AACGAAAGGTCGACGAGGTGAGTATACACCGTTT
Ans: 5.12

Q: # repeat for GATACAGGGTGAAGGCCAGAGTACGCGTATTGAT
Ans: -0.32

---

- Tested on: VDR:RXRa (NR concentration 270 nM, RXRa partner concentration 90 nM)
- Assay Remarks: PBM binding z-score (relative to random genomic background probes); higher = stronger binding; sequences stand for … in GC…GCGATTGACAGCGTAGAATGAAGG
Reported Property: PBM binding z-score
Returns: the value as a bare number; no unit string appended.

Here is how some sequences turned out for PBM binding z-score.
Macromolecule Sequence: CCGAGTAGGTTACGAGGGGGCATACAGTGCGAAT
Reported Property: PBM binding z-score
Recorded Value: 4.67
//
Macromolecule Sequence: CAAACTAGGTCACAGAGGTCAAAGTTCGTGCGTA
Reported Property: PBM binding z-score
Recorded Value: 8.36
//
Macromolecule Sequence: TAGCCTAGGTCCTTCAGGGGCCAGTATAGAAAGC
Reported Property: PBM binding z-score
Recorded Value: -0.708

Q: Could you share what PBM binding z-score was measured for ATATGGAGGTTAGCTGGGGTCATTCAGACTAGGC , tested on VDR:RXRa (NR concentration 270 nM, RXRa partner concentration 90 nM)?
Ans: 6.86

Q: Also need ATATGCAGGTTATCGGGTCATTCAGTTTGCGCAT , thanks.
Ans: 5.27

Q: Same for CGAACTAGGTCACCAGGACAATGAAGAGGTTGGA
Ans: 2.21

Q: How about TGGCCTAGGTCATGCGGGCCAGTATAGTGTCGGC ?
Ans: 2.64

Q: Please give the result for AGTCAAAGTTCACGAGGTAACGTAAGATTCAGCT too.
Ans: 4.94

---

- Test system: PXR:RXRa (NR concentration 270 nM, RXRa partner concentration 90 nM)
- Assay Remarks: PBM binding z-score (relative to random genomic background probes); higher = stronger binding; sequences stand for … in GC…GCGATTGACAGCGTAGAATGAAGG
# PBM binding z-score binned as bin 1: < 1; bin 2: ≥ 1 and < 4; bin 3: ≥ 4

Q: For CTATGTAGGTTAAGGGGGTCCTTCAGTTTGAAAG , which PBM binding z-score bin applies?
Ans: bin 2

Q: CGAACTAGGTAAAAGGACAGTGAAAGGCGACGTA , same question.
Ans: bin 1

Q: For ATCGAAAGGTCGCAGGTGAGTATACCCACCCGAA then?
Ans: bin 2

Q: Continue with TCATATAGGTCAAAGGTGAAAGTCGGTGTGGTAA
Ans: bin 3

Q: Similarly, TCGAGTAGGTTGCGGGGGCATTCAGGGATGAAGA ?
Ans: bin 2

Q: Follow-up entry: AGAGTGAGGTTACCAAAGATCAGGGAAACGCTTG
Ans: bin 2

Q: Okay, and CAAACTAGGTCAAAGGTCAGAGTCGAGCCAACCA ?
Ans: bin 3

Q: Same again, this time with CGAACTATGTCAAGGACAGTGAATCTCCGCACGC
Ans: bin 1

Q: Param item: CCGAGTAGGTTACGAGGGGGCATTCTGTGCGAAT
Ans: bin 3

Q: Another sequence to check: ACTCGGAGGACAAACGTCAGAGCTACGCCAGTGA
Ans: bin 1

Q: Check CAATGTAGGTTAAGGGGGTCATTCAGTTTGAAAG too.
Ans: bin 3

---

- System: RARb:RXRa (NR concentration 270 nM, RXRa partner concentration 90 nM)
- Assay Remarks: PBM binding z-score (relative to random genomic background probes); higher = stronger binding; sequences stand for … in GC…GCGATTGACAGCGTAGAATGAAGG
The reader will find reported PBM binding z-score values listed item by item below.
Just the number.

Macromolecule Sequence: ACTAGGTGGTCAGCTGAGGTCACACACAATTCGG
PBM binding z-score: 3.78

Macromolecule Sequence: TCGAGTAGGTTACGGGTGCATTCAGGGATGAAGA
PBM binding z-score: 0.994

Q: Name the recorded PBM binding z-score for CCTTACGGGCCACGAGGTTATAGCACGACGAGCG .
Ans: 1.15

Q: Request: AGCGAAAGGTCGAAGGTGAGTATACCCACCCGAA
Ans: 3.6

Q: How about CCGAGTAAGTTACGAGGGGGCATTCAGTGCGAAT ?
Ans: 1.09

Q: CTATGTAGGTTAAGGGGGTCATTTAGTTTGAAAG ?
Ans: 3.51

Q: Another sequence to look at: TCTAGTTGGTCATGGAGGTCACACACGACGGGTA
Ans: 3.77

---

- Test system: RXRa homodimer (NR concentration 180 nM)
- Assay Remarks: PBM binding z-score (relative to random genomic background probes); higher = stronger binding; sequences stand for … in GC…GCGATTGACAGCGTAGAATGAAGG
just bin them by PBM binding z-score: low group (below 3), middle group (3 to below 5), high group (5 or more)

Past entries and their recorded results:
Macromolecule Sequence: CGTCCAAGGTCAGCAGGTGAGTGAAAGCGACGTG
Discrete Label: middle group

Macromolecule Sequence: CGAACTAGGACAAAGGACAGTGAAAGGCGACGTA
Discrete Label: low group

Macromolecule Sequence: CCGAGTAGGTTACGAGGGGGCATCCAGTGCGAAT
Discrete Label: low group

Next:
Q: Input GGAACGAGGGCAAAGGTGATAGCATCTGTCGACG ; output its category
Ans: middle group

All values here come from the supplement of paper PMC6555819.
